# Method Notes: Cytotoxicity against RAW264.7 cells (CCK8)
# Format: cell-based
# Experimental Context: mouse, 24 h incubation, 3.125–200 μM
Readout Type: CC50 at 24 h

Exam item: Check the records and state CC50 at 24 h for C=C1C(=O)O[C@H]2[C@H]1[C@@H](OC(=O)C(C)C)CC(=C)[C@]1(O)CC=C(C)[C@H]21 [Compound 17, 8-epi-isobutyrylrupicolin B]
Marked response: > 20 µM

Exam item: Check the records and state CC50 at 24 h for C=C1C(=O)O[C@H]2[C@H]1[C@@H](OC(=O)CC(C)C)C=C(C)[C@]1(O)CC=C(C)[C@H]21
Marked response: > 10 µM

Exam item: Check the records and state CC50 at 24 h for C=C1C(=O)O[C@H]2[C@H]1[C@@H](OC(=O)CC)C=C(C)[C@]1(O)C[C@H]3O[C@@]3(C)[C@H]21
Marked response: > 15 µM

Exam item: Check the records and state CC50 at 24 h for C=C1C(=O)OC2C1CCC(C)(O)C1(O)C(Cl)C3OC3(C)C21 (stereo not drawn)
Marked response: > 40 µM

Exam item: Check the records and state CC50 at 24 h for C=C1C(=O)O[C@H]2[C@H]1[C@@H](OC(=O)C(C)C)CC(=C)[C@]1(O)C[C@H]3O[C@@]3(C)[C@H]21
Marked response: > 20 µM

Exam item: Check the records and state CC50 at 24 h for C=C1C(=O)OC2C1C(OC(=O)CC)CC(C)(OC)C1C(=O)C=C(C)C21 (stereo not drawn)
Marked response: > 10 µM

Exam item: Check the records and state CC50 at 24 h for C=C1C(=O)O[C@H]2[C@H]1[C@@H](OC(=O)C(C)CC)C=C(C)[C@]1(O)CC=C(C)[C@H]21 (stereo partly drawn)
Marked response: > 10 µM

Exam item: Check the records and state CC50 at 24 h for C=C1C(=O)O[C@H]2[C@H]1[C@@H](OC(=O)/C(C)=C\C)CC(=C)[C@]1(O)CC=C(C)[C@H]21
Marked response: > 20 µM

Exam item: Check the records and state CC50 at 24 h for C=C1C(=O)O[C@H]2[C@H]1[C@@H](OC(=O)CC(C)C)CC(=C)[C@]1(O)CC=C(C)[C@H]21
Marked response: > 20 µM

Exam item: Check the records and state CC50 at 24 h for C=C1C(=O)O[C@H]2[C@H]1[C@@H](OC(=O)/C(C)=C\C)C=C(C)[C@]1(O)CC=C(C)[C@H]21
Marked response: > 10 µM

Exam item: Check the records and state CC50 at 24 h for C=C1C(=O)O[C@H]2[C@H]1[C@@H](OC(=O)/C(C)=C\C)CC(=C)[C@]1(O)C[C@H]3O[C@@]3(C)[C@H]21
Marked response: > 10 µM

Exam item: Check the records and state CC50 at 24 h for C=C1C(=O)O[C@H]2[C@H]1[C@@H](OC(=O)CC(C)C)CC(=C)[C@]1(O)C[C@H]3O[C@@]3(C)[C@H]21
Marked response: > 25 µM

---

Would you kindly list CC50 at 24 h for each of these compounds?
# Method Notes: Cytotoxicity against RAW264.7 cells (CCK8)
# Format: cell-based
# Experimental Context: mouse, 24 h incubation, 3.125–200 μM

Exam item: Check the records and state CC50 at 24 h for C=C1C(=O)O[C@@H]2[C@H]3C(C)=CC(=O)C3=C(C)CC[C@@H]12 [Compound 20, dehydroleucodine]
Marked response: > 70 µM

Exam item: Check the records and state CC50 at 24 h for C=C1C(=O)O[C@@H]2[C@H]3C(C)=CC(=O)C3=C(C)C[C@H](OC(=O)CC)[C@@H]12
Marked response: > 20 µM

Exam item: Check the records and state CC50 at 24 h for C=C1C(=O)O[C@H]2[C@H]1[C@@H](OC(=O)C(C)CC)CC(=C)[C@]1(O)CC=C(C)[C@H]21 (stereo partly shown)
Marked response: > 15 µM

Exam item: Check the records and state CC50 at 24 h for C=C1C(=O)O[C@H]2[C@H]1[C@@H](OC(=O)C(C)C)C=C(C)[C@]1(O)C[C@H]3O[C@@]3(C)[C@H]21
Marked response: > 20 µM

Exam item: Check the records and state CC50 at 24 h for C=C1CC(OC(=O)C(C)=CC)C2C(C)C(=O)OC2C2C(C)=CCC12O (stereo not shown)
Marked response: > 100 µM

Exam item: Check the records and state CC50 at 24 h for C=C1C(=O)O[C@H]2[C@H]1[C@@H](OC(=O)C=C(C)C)CC(=C)[C@]1(O)CC=C(C)[C@H]21
Marked response: > 15 µM

Exam item: Check the records and state CC50 at 24 h for C=C1C(=O)O[C@H]2[C@H]1[C@@H](OC(=O)/C(C)=C/C)CC(=C)[C@]1(O)CC=C(C)[C@H]21 [Compound 15, 8-epi-Tiglylrupicolin B]
Marked response: > 10 µM

Exam item: Check the records and state CC50 at 24 h for C=C1C(=O)O[C@H]2[C@H]1[C@@H](OC(C)=O)CC(C)=C1C[C@H]3O[C@@]3(C)[C@@H]12 [Compound 21, (+)-Arteglasin A]
Marked response: > 20 µM

Exam item: Check the records and state CC50 at 24 h for C=C1C(=O)O[C@@H]2[C@H]3C(C)=CC(=O)C3=C(C)C[C@H](OC(C)=O)[C@@H]12 [Compound 22, Dehydromatricarin]
Marked response: > 10 µM

Exam item: Check the records and state CC50 at 24 h for C=C1C(=O)O[C@H]2[C@H]1[C@@H](OC(=O)C(C)C)C=C(C)[C@]1(O)CC=C(C)[C@H]21 [Compound 18, 8-epi-isobutyrylrupicolin]
Marked response: > 20 µM
